Every entry's value here was drawn from PubChem BioAssay (NCI).

test system: SK-OV-3 ovarian; experiment: NCI-60 one-dose screen, 48 h (100 = growth as untreated, 0 = no growth, -100 = all killed); settings: 10 µM unless noted
This is part of a sample that, as a whole, favours compounds with a hit. Of some 83,000 tested, about 20% had one in any assay.
metric: growth (%)
Give bare numbers, in %.

>  <compound>
CCc1ccc(-c2cn3ccnc3c(-c3ccc4ncn(Cc5ccccc5)c4c3)n2)cc1

>  <tested-target>
SK-OV-3 ovarian

>  <metric>
growth

>  <value-reported>
99.4

$$$$

List growth for every entry below, keeping the order given.
1. COc1ccc(C/C(=C(\C)c2ccc(OCCN3CCCC3)cc2)c2ccc(OCCN3CCCC3)cc2)cc1
2. COc1cc(/C=N/O)nc(-c2ccccn2)c1
3. O=C(O)c1ccc2c(c1)C(=O)N(Cc1ccccc1)C2=O
4. COC(=O)C1=C(C(=O)ON)[C@@H]2C=C[C@@]1([C@@H](Cc1ccccc1)Nc1ccccc1)O2

Reply:
1: 90.8; 2: 28.6; 3: 106; 4: 107
